- Test system: A2780CIS human ovarian cisplatin resistant cells
- measurement-protocol: MTT cytotoxicity assay, 48 h
- Format: cell-based
- experimental-context: 48 h treatment, value (S.D.)
- Method: First, the cytotoxicity of 1^2+ and 2^2+ toward several cancer cell lines was examined. The viability of cells exposed to their chloride salts was assessed by an MTT (3-(4,5-dimethylthiazol-2-yl)-2,5-diphenyltetrazolium bromide) assay, and the common chemotherapeutic agent cisplatin was employed as a positive control, Figure 3. S2. Tissue Culture and Microscopy Methods Cell media was purchased sterile from Sigma-Aldrich. […]
reported-metric: IC50 (µM)
Quick note: give the figure in µM, leave out the unit.

q: IC50 for N.N.[Cl][Pt][Cl] [cisplatin] ?
a: 19

FYI, the data here is from paper PMC11082890.
